# CC50 listing for each entry below
# Assay Explanation: Cell viability / cytotoxicity by MTT method
# Format: cell-based
# Condition Label: human

Solved entries:
Compound	Measurement
N#CCCCOc1c(-c2ccc(O)c(O)c2)oc2cc(O)cc(O)c2c1=O [Compound 12d]	> 50 µM
O=C(Oc1c(-c2ccc(O)c(O)c2)oc2cc(O)cc(O)c2c1=O)c1cccc(Cl)c1 [Compound 4j]	> 50 µM
O=c1c(O)c(-c2ccc(O)c(O)c2)oc2cc(OCc3ccccc3)cc(O)c12 [Compound 3a]	> 50 µM
COc1ccccc1C(=O)Oc1c(-c2ccc(O)c(O)c2)oc2cc(O)cc(O)c2c1=O [Compound 4d]	> 50 µM
O=C(Oc1c(-c2ccc(O)c(O)c2)oc2cc(O)cc(O)c2c1=O)c1ccccc1F [Compound 4b]	> 50 µM

Enquiry: What does the data say about its CC50? Entry: O=C(Oc1c(-c2ccc(O)c(O)c2)oc2cc(O)cc(O)c2c1=O)c1ccccc1 [Compound 4a]
Return: > 50 µM

Enquiry: Returns the measured CC50 for the input compound. Input: COc1cccc(C(=O)Oc2c(-c3ccc(O)c(O)c3)oc3cc(O)cc(O)c3c2=O)c1 [Compound 4h]
Return: > 50 µM

Enquiry: Reported CC50 for N#Cc1ccccc1C(=O)Oc1c(-c2ccc(O)c(O)c2)oc2cc(O)cc(O)c2c1=O [Compound 4e] : what is it?
Return: > 50 µM

Enquiry: Field request: CC50 | item: O=c1c(OCCO)c(-c2ccc(O)c(O)c2)oc2cc(O)cc(O)c12 [Compound 12c]
Return: > 50 µM

Enquiry: Recorded CC50 for N#Cc1ccc(C(=O)Oc2c(-c3ccc(O)c(O)c3)oc3cc(O)cc(O)c3c2=O)cc1 [Compound 4n] , please?
Return: > 50 µM

Enquiry: I have this compound here, O=C(Oc1c(-c2ccc(O)c(O)c2)oc2cc(O)cc(O)c2c1=O)c1cccc(F)c1 [Compound 4f] , and I need its recorded CC50.
Return: > 50 µM

Enquiry: CC50 for O=c1c(O)c(-c2ccc(O)c(O)c2)oc2cc(OCc3ccc(F)cc3)cc(O)c12 [Compound 3n] ?
Return: 31.9 µM

Enquiry: Which CC50 value is on record for O=C(Oc1c(-c2ccc(O)c(O)c2)oc2cc(O)cc(O)c2c1=O)c1ccc(Cl)cc1 [Compound 4o] ?
Return: > 50 µM

Enquiry: Data request, read-out CC50, for N#Cc1cccc(C(=O)Oc2c(-c3ccc(O)c(O)c3)oc3cc(O)cc(O)c3c2=O)c1 [Compound 4i]
Return: > 50 µM

Enquiry: Please report the recorded CC50 for N#Cc1ccccc1COc1cc(O)c2c(=O)c(O)c(-c3ccc(O)c(O)c3)oc2c1 [Compound 3f] .
Return: 12.6 µM

Enquiry: Would you mind telling me what CC50 value was observed for Nc1cccc(C(=O)Oc2c(-c3ccc(O)c(O)c3)oc3cc(O)cc(O)c3c2=O)c1 [Compound 4g] ?
Return: > 50 µM

meta.source: paper PMC6272327
